System: PPARg:RXRa 270nM:90nM, anti-RXR (NR concentration 270 nM, RXRa partner concentration 90 nM)
assay_text: PBM binding z-score (relative to random genomic background probes); higher = stronger binding; sequences stand for … in GC…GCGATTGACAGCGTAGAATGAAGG
Threshold rule: PBM binding z-score greater than or equal to 4 is True; below that, False.

Below are worked cases with known answers.
In: Is PBM binding z-score at least 4? Consider ATCTCTAGGTAAAGTTCAGTGATAGATCGATAGA
Out: True

In: Is PBM binding z-score at least 4? Consider CAAACTAGGTCCCGAAAGGTCAAAGTCGAATGAC
Out: True

---
In: Is PBM binding z-score at least 4? Consider AGAACGAGGGCACGCTGAGTTGATAGCCGAGTAG
Out: False

In: Is PBM binding z-score at least 4? Consider TATACAGGGTCAAAGGCCAGAGTGCGAATGTCGA
Out: True
